Biological target: T1, RBFOX1 RRM RbFoxmut (Fox-RRM*) (Homo sapiens, UniProt Q9NWB1 109-208, R118D;E147R;N151S;E152T)
T1 sequence: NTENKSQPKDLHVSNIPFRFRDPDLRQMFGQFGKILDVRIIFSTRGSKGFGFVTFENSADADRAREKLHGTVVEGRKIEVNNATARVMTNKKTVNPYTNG
Assay: EMSA; HiTS-Eq, 1 nM pool, 10 min; buffer printed only for the single-RNA assays: 10 mM Tris pH 7.5, 150 mM NaCl, 3.4 mM EDTA, 0.001% NP-40, 30 C
Settings: tags: His6 N-terminal (pET28a); label: 5' 32P
Whole data set: some 16,000 sequences, median “ka relative to ugcaugu” near 0.096, cut for the highest 2% near 0.35. Many of the other results were omitted from the sample, so the highest values are more common in it than they were.
OBSERVABLE: binding signal

BINDER	OBSERVED
GGGGGGU (DNA:RNA) RNA: GGGAGACCGGAAUUCAGAUUGUCCGGGGGGUUUAAAUCCCGUCGUAGCCACCA DNA 1: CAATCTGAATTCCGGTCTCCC DNA 2: TGGTGGCTACGACGGGATT	0.0952 KA relative to UGCAUGU
GUCGGGU (DNA:RNA) RNA: GGGAGACCGGAAUUCAGAUUGUCCGUCGGGUUUAAAUCCCGUCGUAGCCACCA DNA 1: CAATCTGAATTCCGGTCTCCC DNA 2: TGGTGGCTACGACGGGATT	0.132 KA relative to UGCAUGU

Data credit: paper PMC9911399
